The reported measurements were obtained from the RepoRT retention time repository (doi:10.1021/acs.analchem.2c02893).

# assayName: RP, Thermo Scientific Acclaim RSLC 120 C18, 100 × 2.1 mm, 2.2 µm, 30 °C, 0.2 mL/min, estimated dead time 1.1 min; A: 90% water + 10% methanol + 0.01% formic acid + 5 mM ammonium formate, pH 3.61; B: methanol + 0.01% formic acid + 5 mM ammonium formate, pH 3.61; gradient (min/%B) 0/1 1/1 2/39 13/99.9 15/99.9 15.1/1 20.1/1
# testContext: stereoisomer not certain
LC retention time class ranges: L (below 5 min), M (5 min to below 9 min), H (9 min or more)

The examples below pair each entry with its known result.
| molecule | cat |
| --- | --- |
| N=C(N)c1ccccc1 | L |
| CCOc1ccccc1OS(=O)(=O)NC(=O)Nc1nc(OC)cc(OC)n1 | H |

Record CN(C)C(=O)C(c1ccccc1)c1ccccc1 [Diphenamide] — which class?
M

Which class is correct for the following molecule? CC1C=CC=CCCC=CC=CC=CC=CC(OC2OC(C)C(O)C(N)C2O)CC2OC(O)(CC(O)C(O)CCC(O)CC(O)CC(O)CC(=O)OC(C)C(C)C1O)CC(O)C2C(=O)O (centres undefined)
H

GET /class?item= CC(C)(C)NCC(O)c1cc(Cl)c(N)c(Cl)c1 (centres undefined)
L

Exercise: read the entry CCOc1ccc(C(C)(C)COCc2cccc(Oc3ccccc3)c2)cc1 and state which class it falls under.
H

Would you mind sorting c1ccc2scnc2c1 into the appropriate category?
M

Hello team, could you let me know which band the following molecule falls into: CC(C)(C)Nc1nc(N)[nH]c(=O)n1 [Terbuthylazine-desethyl-2-hydroxy]
L
